Value source: the nanobody polyreactivity screen of Harvey et al. (2022)

# Procedure Summary: yeast display, Sf9 membrane polyspecificity reagent, FACS + sequencing; frameworks hold sequencing errors
Measured Endpoint: polyreactivity (PSR sort gate)

>  <Sequence String>
QVQLVESGGGLGQAGGSLRLSCAASGFTIIYYAMGWYRQAPGKERELVAAISRRGGRTYYADSVKGRFTISRDNAKNTVYLQMNSLKPEDTAVYYCAADGSGTSISYRYKHDYWGQGTQVTVSS

>  <Result>
high polyreactivity

$$$$
>  <Sequence String>
QVQLVESGGGLVQAGGSLRLSCAASGIIFSYYTMGWYRQAPGKERELVAAISRTGGRTYYADSVKGRFTISRDNAKNTVYLQMNSLKPEDTAVYYCAAEQQYASICYDYWGQGTEVTVSS

>  <Result>
high polyreactivity

$$$$
